Test system: A498 complex spheroids with HUVEC/MSC, growth
Assay: Anticancer human tumor A498 cell line growth inhibition [AhR];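 further: luminescence signal used as a surrogate for viable cells; seven day exposure starting three days after spheroid seeding; luminescence viability scaled so 100% equals DMSO vehicle wells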
Conditions: second compound 0.1 µM; first compound 0.00949 µM; hits give low values
quantityMeasured: viability, T/C

CCN(c1cc(-c2ccc(CN3CCOCC3)cc2)cc(C(=O)NCc2c(C)cc(C)[nH]c2=O)c1C)C1CCOCC1 + Cc1ccccc1N=Nc1ccc(NC(=O)c2ccnn2C)c(C)c1; 92.6%
CC(C)CC(NC(=O)C(Cc1ccccc1)NC(=O)c1cnccn1)B(O)O (configuration not stated) + CC(CO)NC(=O)c1cc(-c2ccc(Cl)cc2)nn(-c2cnn(C)c2)c1=O; 3.71%
CCN(c1cc(-c2ccc(CN3CCOCC3)cc2)cc(C(=O)NCc2c(C)cc(C)[nH]c2=O)c1C)C1CCOCC1 + Cc1cncc(-c2nc(NCCc3c[nH]c4ccccc34)c3ncn(C(C)C)c3n2)c1; 94%
CCc1c2c(nc3ccc(O)cc13)-c1cc3c(c(=O)n1C2)COC(=O)[C@]3(O)CC + Cc1cncc(-c2nc(NCCc3c[nH]c4ccccc34)c3ncn(C(C)C)c3n2)c1; 70.2%
O=C(C=Cn1cnc(-c2cc(C(F)(F)F)cc(C(F)(F)F)c2)n1)NNc1cnccn1 + Cc1ccccc1N=Nc1ccc(NC(=O)c2ccnn2C)c(C)c1; 88.7%
CCN(c1cc(-c2ccc(CN3CCOCC3)cc2)cc(C(=O)NCc2c(C)cc(C)[nH]c2=O)c1C)C1CCOCC1 + CC(CO)NC(=O)c1cc(-c2ccc(Cl)cc2)nn(-c2cnn(C)c2)c1=O; 99.8%
Nc1ncn(C2CC(O)C(CO)S2)c(=O)n1 (configuration not stated) + CC(CO)NC(=O)c1cc(-c2ccc(Cl)cc2)nn(-c2cnn(C)c2)c1=O; 96.3%
CCc1c2c(nc3ccc(O)cc13)-c1cc3c(c(=O)n1C2)COC(=O)[C@]3(O)CC + Cc1ccccc1N=Nc1ccc(NC(=O)c2ccnn2C)c(C)c1; 72.8%
CCc1c2c(nc3ccc(O)cc13)-c1cc3c(c(=O)n1C2)COC(=O)[C@]3(O)CC + CC(CO)NC(=O)c1cc(-c2ccc(Cl)cc2)nn(-c2cnn(C)c2)c1=O; 61.7%
CC(C)CC(NC(=O)C(Cc1ccccc1)NC(=O)c1cnccn1)B(O)O (configuration not stated) + Cc1ccccc1N=Nc1ccc(NC(=O)c2ccnn2C)c(C)c1; 12.4%

Required: viability, T/C, one value per compound below.
1. O=C(C=Cn1cnc(-c2cc(C(F)(F)F)cc(C(F)(F)F)c2)n1)NNc1cnccn1 + CC(CO)NC(=O)c1cc(-c2ccc(Cl)cc2)nn(-c2cnn(C)c2)c1=O
2. O=C(C=Cn1cnc(-c2cc(C(F)(F)F)cc(C(F)(F)F)c2)n1)NNc1cnccn1 + Cc1cncc(-c2nc(NCCc3c[nH]c4ccccc34)c3ncn(C(C)C)c3n2)c1

**A:**
["72.7%", "86.3%"]
